Provide the recorded Final conversion for the entries that follow.
# assay protocol: Real time FT-IR curing performance in UViCure S105 at 365 and 385 nm
# experimental parameters: LED @385 nm (160 W/cm^2), UViCure S105, 20 μm thickness, under air; epoxide band
Kindly answer with a numeric value in %, unit omitted.

Query: Endpoint output: Final conversion of COc1ccccc1-c1cc(-[s+]2c3ccccc3c(=O)c3cc(C(C)C)ccc32)ccc1OC (stereo not drawn) . Value?
Result: 36

Query: Next entry: CCCOc1ccc(Cl)c2c(=O)c3cc([S+](c4ccc(C)cc4)c4ccc(C(=O)c5ccccc5)cc4)ccc3sc12 (stereo not drawn)
Result: 37

Query: Next entry: CC(C)c1ccc2sc3ccc(-[s+]4c5ccccc5c(=O)c5cc(C(C)C)ccc54)cc3c(=O)c2c1 (stereo not drawn)
Result: 36

Query: Next entry: CC(C)c1ccc2c(c1)c(=O)c1ccccc1[s+]2-c1ccc(Oc2ccccc2)cc1 (stereo not drawn)
Result: 36

Query: Next entry: CCCOc1ccc(Cl)c2c(=O)c3ccccc3[s+](-c3ccc(-c4ccc(OC)cc4)cc3)c12 (stereo not drawn)
Result: 33

Query: Next entry: COC(=O)COc1ccc2sc3ccc(-[s+]4c5ccccc5c(=O)c5cc(OCC(=O)OC)ccc54)cc3c(=O)c2c1 (stereo not drawn)
Result: 36

Query: Next entry: CCCOc1ccc(Cl)c2c1[SH](c1ccc(Oc3ccccc3)cc1)c1ccccc1C2=O (stereo not drawn)
Result: 38

Query: Next entry: CCc1cc(CC)c2sc3ccc(-[s+]4c5ccccc5c(=O)c5cc(CC)cc(CC)c54)cc3c(=O)c2c1 (stereo not drawn)
Result: 38

Query: Next entry: COc1ccc(-c2ccc(-[s+]3c4ccccc4c(=O)c4cc(C(C)C)ccc43)cc2)cc1 (stereo not drawn)
Result: 28

Query: Next entry: CCc1cc(CC)c2sc3ccc([S+](c4ccc(C)cc4)c4ccc(C(=O)c5ccccc5)cc4)cc3c(=O)c2c1 (stereo not drawn)
Result: 25

Query: Next entry: CCCOc1ccc(Cl)c2c(=O)c3cc(-[s+]4c5ccccc5c(=O)c5c(Cl)ccc(OCCC)c54)ccc3sc12 (stereo not drawn)
Result: 39

Query: Next entry: Cc1ccc([S+](c2ccc(C(=O)c3ccccc3)cc2)c2ccc3sc4ccc(C(C)C)cc4c(=O)c3c2)cc1 (stereo not drawn)
Result: 41
